# Tested on: 233499-124-R-J3-PDC complex spheroid viability, % test/control;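 further: spheroids exposed to agents for one week before readout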
# Protocol text: Anticancer human tumor 233499-124-R-J3-PDC patient-derived colon adenocarcinoma cell line growth inhibition
# Experimental parameters: second compound 1 µM; first compound 0.949 µM; stronger effect = lower value
Recorded viability, T/C values for a group of compounds are listed next.
Use % as the unit, but write only the number.

Examples from the recorded data:
Compound	Endpoint value
CCN(c1cc(-c2ccc(CN3CCOCC3)cc2)cc(C(=O)NCc2c(C)cc(C)[nH]c2=O)c1C)C1CCOCC1 + NC1CC1c1ccc(-c2cccc(O)c2)cc1	85
O=C(C=Cc1cccc(S(=O)(=O)Nc2ccccc2)c1)NO + NC1CCC(NC2CC2c2ccccc2)CC1	44.7
Nc1ccccc1NC(=O)c1ccc(CNC(=O)OCc2cccnc2)cc1 + NC1CCC(NC2CC2c2ccccc2)CC1	8.94
COc1cc(C2c3cc4c(cc3C(OC3OC5COC(C)OC5C(O)C3O)C3COC(=O)C23)OCO4)cc(OC)c1O (stereo not given) + NC1CCC(NC2CC2c2ccccc2)CC1	65.7

Q. Lab request: please report viability, T/C under test system 233499-124-R-J3-PDC complex spheroid viability, % test/control for Nc1ccccc1NC(=O)c1ccc(CNC(=O)OCc2cccnc2)cc1 + NC1CC1c1ccc(-c2cccc(O)c2)cc1;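 further: spheroids exposed to agents for one week before readout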
A. 9.92

Origin of measurements: PubChem BioAssay AID1918930
